# target or test system: T1, human GFRα3 expressed with a C-terminal myc-myc-hexahistidine tag (human, UniProt O60609 32-374, biotinylated (sites not given) in ELISA format 2 and in the Octet cross-competition; not in SPR)
# T1 construct: also called hGFRα3-mmh; hGFRα3-mmH
# T1 sequence (O60609 other isoform, or with tags, fused parts or gaps limits assumed): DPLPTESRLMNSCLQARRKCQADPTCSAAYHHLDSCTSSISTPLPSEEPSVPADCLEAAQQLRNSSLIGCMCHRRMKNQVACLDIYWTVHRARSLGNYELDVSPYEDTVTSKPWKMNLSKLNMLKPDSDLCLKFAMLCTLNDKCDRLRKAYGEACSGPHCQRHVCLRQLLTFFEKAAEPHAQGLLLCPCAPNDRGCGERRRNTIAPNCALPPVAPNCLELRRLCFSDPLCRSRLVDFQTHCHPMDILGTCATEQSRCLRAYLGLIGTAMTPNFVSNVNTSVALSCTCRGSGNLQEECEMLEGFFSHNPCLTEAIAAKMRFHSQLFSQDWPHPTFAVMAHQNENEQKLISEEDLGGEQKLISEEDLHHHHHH
# assay overview: SPR, Ab captured, 25C
reported property: kon (M⁻¹ s⁻¹)
Report the figure in M⁻¹ s⁻¹ without appending any unit label.

# example entries with known answers
binder	result unit	readout number
H4H2292S (antibody, human IgG4, V domains shown, human IgG4 Fc (H4H)) VH: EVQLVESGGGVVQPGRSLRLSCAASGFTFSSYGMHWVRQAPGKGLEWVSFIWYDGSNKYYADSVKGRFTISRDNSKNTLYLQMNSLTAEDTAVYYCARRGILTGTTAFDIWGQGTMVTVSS VL: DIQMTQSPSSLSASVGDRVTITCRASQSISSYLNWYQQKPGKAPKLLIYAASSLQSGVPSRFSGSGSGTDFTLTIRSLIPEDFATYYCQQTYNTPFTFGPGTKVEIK	M⁻¹ s⁻¹	108000
H1M2236N (antibody, V domains shown, chimeric, human variable and mouse constant domains (H1M)) VH: EVQLLESGGNLVQPGGSLRLSCAASGFTFSSYAMTWVRQAPGKGLEWVSTISGSGTSTYYADSVKGRFTISRDNSRDTVFLQMNSLRAEDTAVYYCSKPSALRFLHWLCMDVWGQGTLVTVSS VL: DIQMTQSPSSLSAFVGDRVTITCRASQDIRNYLDWFQQKPGKAPKSLIYAASNLQSGVPSRFGGSGSGTDFTLTINSLQPEDFVTYYCQQYNSYPPTFGGGTKVEIK	M⁻¹ s⁻¹	760000
H4H2354S (antibody, human IgG4, V domains shown, human IgG4 Fc (H4H); also called H4H2354S-1) VH: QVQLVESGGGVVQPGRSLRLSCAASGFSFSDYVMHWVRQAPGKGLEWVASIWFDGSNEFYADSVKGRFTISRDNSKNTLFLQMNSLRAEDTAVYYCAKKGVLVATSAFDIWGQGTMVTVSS VL: DIQLTQSPSSLSASVGDRVTITCRASQSINNYLNWYHQKPGKAPKLLIYAASSLQSGVPSRFSGSGSGTDYTLTISSLQPEDFGNYYCQQSYRTSMYTFGQGTKVEIK	M⁻¹ s⁻¹	200000
H4H2350P (antibody, human IgG4, V domains shown, human IgG4 Fc (H4H)) VH: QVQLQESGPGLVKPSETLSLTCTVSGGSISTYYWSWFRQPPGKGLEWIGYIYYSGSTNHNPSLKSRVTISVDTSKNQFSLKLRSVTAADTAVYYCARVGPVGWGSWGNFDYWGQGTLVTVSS VL: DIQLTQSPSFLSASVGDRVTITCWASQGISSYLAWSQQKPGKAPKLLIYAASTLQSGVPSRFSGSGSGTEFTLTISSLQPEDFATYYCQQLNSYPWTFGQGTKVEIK	M⁻¹ s⁻¹	103000

Okay, next one:
Please give the measured kon for this binder: H4H2243N2 (antibody, human IgG4, V domains shown, human IgG4 Fc (H4H)) VH: QVQLVQSGAEVKKPGASVKVSCKASGYTFTSYGIIWVRQAPGQGLEWMGWISGYNGNTNYAQNLQGRVTMTTDTSTTTAYMELRSLRSDDTAVYYCARWGIATRPYYYYGMDVWGQGTTVTVSS VL: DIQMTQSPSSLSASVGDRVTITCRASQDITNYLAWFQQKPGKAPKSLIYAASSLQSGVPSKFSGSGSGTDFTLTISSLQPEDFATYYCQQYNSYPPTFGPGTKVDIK
267000
